Assay: yeast display, Sf9 membrane polyspecificity reagent, FACS + sequencing; frameworks hold sequencing errors

Item sequence	polyreactivity (PSR sort gate)
QVQLVESGGGLVQAGGSLRLSCAASGSTFYWYAMGWYRPAPGKERELVAAISSGADTSYADSVKGRFTISRDNAKNTVYLQMNSLKPEDTAVYYCARRYRARGSMYYWGQGTKVTVSS	high polyreactivity
QVQLVESGGGLVQAGGSLRLSCAASGFTFLINAMGWYRQAPGKERELVAAIRSGGSTNYADSVKGRFTISRDNAKNTVYFQMNSLKPEDTAVYYCAARRYYPYKYRYGYWGQGTQVTVSS	high polyreactivity
QVQLVESGGGLVQAGGSLRLSCAASGFIFKAYAMGWYRQAPGKERELVASITSGDSTNYADSVKGRFTISRDNAKNTVYLQMNSLKPEDTAVYYCNADGWRWHRRKWVYGYDYWGQGTQVTVSS	low polyreactivity
QVQLVESGGCLVQAGGTLRLSCASSGNTFVDYGMGWYRQAPGKERELVAAITRGGTTKYADSVKGRFTISRVNAKNKVYLQMNSLKPEDTAVYYCAAEWPVNFDYWGKGTQVTVSS	low polyreactivity
QVQLVESGGGLVQAGGSLRLSCAASGFTFAKYVMGWYRQAPGKERELVAAISFSGGSTYYADSVKGRFTISRDNAKNTVYLQMNSLKPEDTAVYYCAALSDSRWHRFGYWGQGTQVTVSS	high polyreactivity
QVQLVESGGGLVQAGGSLRLSCAASGIIFAYYALGWYRQAPGKERELVAGITQSGGDTYYADSVKGRFTISRDNAKNTVYLQLNSLKPEDTAVYYCAAGWWGYDYWGQGTQVTVSS	high polyreactivity
QVQLVESGGGLVQAGGSLRLSCAASGRIFNLYAMGWYRQAPGKERDLVAAINWSGDRTYYADSVKGRFTISRDNAKNTVYLQMNSLKPDDTAVYYCNADGLEIERYAYWYVFLGYDYWGQGTQVTVSS	low polyreactivity
QVQLVESGGGLVQAGGSLRLSCAASGNTFPLYAMGWYRQAPGKEREMVAAITSSAGSTYYADSVKGRFTISRDNAKNTVYLQMNSLKPEDTAVYYCNARRSDGKVVGYSYSHRNVEYWGQGTQVTVSS	low polyreactivity
QVQLVESGGGLVQAGGSLRLSCAASGIIFYLYAMGWYRQAPGKERELVAAITLSGSTTYYADSVKGGFTISRDNAKNTVYLQMNSLKPEDTAVYYCNADTPVRSDYWGQGTQVTVSS	low polyreactivity
QVQLVESGGGLDQAGGSLRLSCPASGSTFSNYAMGWYRQEPGKERELVAAISVRGGSTYYADSVKGRFTISRDNAKNTVYLQMNSLKPEDTAVYYCNADTDYRDDMDYWGQGTQVTVSS	high polyreactivity
QVKLVESGGGLVQAGGSLRLSCAASGSTFPRYAMGWYRQAPGKEREFVAVIWSGGSTYYADSVKGRFTISRDNAKNTVYFQMNSLIPEDTAVYYCAAEYHTLSKYSGYATHDYWGQGTQVTVSS	low polyreactivity

###

Assay: yeast display, Sf9 membrane polyspecificity reagent, FACS + sequencing; frameworks hold sequencing errors
Measurement label: polyreactivity (PSR sort gate)

Item sequence	Obs value
QVQLVESGGGLVQAGGSLRLSCAASGRIFVLNAMGWYRQAPGKERELVAAITFSGGRTYYADSVKGRFTISRDNAKNTVYLQMNSLKPEDTAVYYCATRQDWRRTYGYWGQGTQVTVSS	low polyreactivity
QVQLVESGGGLVQAGGSLRLSCAASGFTFWYYAMGWYRQAPGKERELVATITSGDSTKYADSVKGRFTISRDNAKNTVYLQMNSLKPEDTAVYDCAAEKVLPFIGYDYWGQGTQVTVSS	low polyreactivity
